So I've got a bunch of compounds here, and I need their pIC50 values.
Experimental target: human Nav1.8 (Homo sapiens (Human), UniProt Q9Y5Y9)
Sequence (Q9Y5Y9 whole entry): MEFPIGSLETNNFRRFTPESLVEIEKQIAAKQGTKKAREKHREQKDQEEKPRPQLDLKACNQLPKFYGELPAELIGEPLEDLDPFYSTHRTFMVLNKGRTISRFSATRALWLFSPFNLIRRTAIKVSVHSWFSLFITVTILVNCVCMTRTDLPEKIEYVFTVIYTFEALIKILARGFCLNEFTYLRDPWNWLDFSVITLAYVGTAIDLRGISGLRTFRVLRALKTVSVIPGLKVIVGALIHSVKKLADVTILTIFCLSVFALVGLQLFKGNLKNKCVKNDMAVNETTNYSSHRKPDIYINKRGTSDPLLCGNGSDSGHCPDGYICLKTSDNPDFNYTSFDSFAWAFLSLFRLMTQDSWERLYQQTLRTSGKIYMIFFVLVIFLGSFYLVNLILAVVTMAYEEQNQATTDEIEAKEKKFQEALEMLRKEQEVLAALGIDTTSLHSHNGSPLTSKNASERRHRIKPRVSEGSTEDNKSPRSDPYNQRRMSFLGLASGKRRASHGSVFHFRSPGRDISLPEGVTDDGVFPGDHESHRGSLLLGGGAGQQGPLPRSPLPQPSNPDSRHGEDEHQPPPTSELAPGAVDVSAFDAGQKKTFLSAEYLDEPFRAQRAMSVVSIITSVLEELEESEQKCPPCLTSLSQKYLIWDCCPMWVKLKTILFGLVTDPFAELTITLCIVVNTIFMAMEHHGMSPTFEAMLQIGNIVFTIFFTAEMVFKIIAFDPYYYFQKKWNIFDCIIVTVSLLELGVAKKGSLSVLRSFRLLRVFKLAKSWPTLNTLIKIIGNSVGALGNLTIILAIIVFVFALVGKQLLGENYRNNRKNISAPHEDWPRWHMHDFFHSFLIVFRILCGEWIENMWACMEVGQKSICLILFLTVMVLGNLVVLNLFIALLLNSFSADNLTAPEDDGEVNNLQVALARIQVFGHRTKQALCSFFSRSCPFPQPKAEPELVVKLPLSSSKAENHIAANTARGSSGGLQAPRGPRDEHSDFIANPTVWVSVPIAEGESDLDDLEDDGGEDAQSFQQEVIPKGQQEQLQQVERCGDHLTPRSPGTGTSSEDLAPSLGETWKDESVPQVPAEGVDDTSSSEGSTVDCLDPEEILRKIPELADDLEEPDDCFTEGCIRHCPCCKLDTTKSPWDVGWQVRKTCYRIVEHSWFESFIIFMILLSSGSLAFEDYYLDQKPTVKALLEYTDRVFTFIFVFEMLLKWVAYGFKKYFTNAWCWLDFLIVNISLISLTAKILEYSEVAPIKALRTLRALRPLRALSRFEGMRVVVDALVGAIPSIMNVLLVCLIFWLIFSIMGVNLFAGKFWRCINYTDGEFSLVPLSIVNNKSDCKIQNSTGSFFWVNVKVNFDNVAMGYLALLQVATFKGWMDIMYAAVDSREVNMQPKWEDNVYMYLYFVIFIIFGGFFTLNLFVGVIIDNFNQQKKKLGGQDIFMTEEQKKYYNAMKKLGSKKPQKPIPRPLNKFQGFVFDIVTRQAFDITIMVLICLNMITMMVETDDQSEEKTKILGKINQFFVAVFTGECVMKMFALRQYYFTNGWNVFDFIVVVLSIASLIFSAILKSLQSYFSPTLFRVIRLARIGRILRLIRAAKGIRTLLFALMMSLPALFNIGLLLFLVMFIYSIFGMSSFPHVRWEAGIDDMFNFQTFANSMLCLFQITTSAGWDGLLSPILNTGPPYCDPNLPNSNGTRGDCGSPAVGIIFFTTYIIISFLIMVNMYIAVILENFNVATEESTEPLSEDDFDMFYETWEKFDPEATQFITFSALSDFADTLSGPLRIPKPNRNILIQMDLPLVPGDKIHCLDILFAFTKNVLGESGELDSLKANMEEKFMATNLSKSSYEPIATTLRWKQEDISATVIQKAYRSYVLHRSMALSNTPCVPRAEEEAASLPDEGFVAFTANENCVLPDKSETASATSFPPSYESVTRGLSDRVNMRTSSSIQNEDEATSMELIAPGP
Assay overview: Nav1.8 Qube automated patch-clamp assay
Conditions: Nav1.8 Qube Assay; human Nav1.8 channels stably expressed in HEK 293 cells
// pIC50: -log10(molar conc.)

Requested read-out: pIC50. Entry: NS(=O)(=O)c1cccc(NC(=O)c2ccc(C(F)(F)F)nc2N2CCCCC2)c1
6.54

Requested read-out: pIC50. Entry: NS(=O)(=O)c1cccc(NC(=O)c2cc(C(F)(F)F)nnc2N2CCCC(F)(F)CC2)c1
7.15

Requested read-out: pIC50. Entry: Cc1ccc(-c2cnc(N3CCCCC3)c(C(=O)Nc3cccc(S(N)(=O)=O)c3)c2)cc1
5.35

Requested read-out: pIC50. Entry: Cc1cc(C(=O)Nc2cccc(S(N)(=O)=O)c2)c(N2CCCCCC2)nc1C
7.92

Requested read-out: pIC50. Entry: Cc1nc(N2CCCCCC2)c(C(=O)Nc2cccc(S(N)(=O)=O)c2)c(C)c1Cl
9.15

Requested read-out: pIC50. Entry: C[C@@H]1CN(c2ncc(C(F)(F)F)cc2C(=O)Nc2cccc(S(N)(=O)=O)c2)C[C@H](C)C1(F)F
8.62

Requested read-out: pIC50. Entry: NS(=O)(=O)c1cccc(NC(=O)c2cc(Br)cnc2N2CCCCCC2)c1
7.62

Requested read-out: pIC50. Entry: NS(=O)(=O)c1cccc(NC(=O)c2cc(C(F)(F)F)cnc2N2C[C@H]3C[C@@H](C2)C3(F)F)c1
6.77

Requested read-out: pIC50. Entry: NC(=O)c1cccc(NC(=O)c2cc(C(F)(F)F)cnc2N2CCCC(F)(F)CC2)c1
7.49

Requested read-out: pIC50. Entry: Cc1nc(N2CCCCCC2)c(C(=O)Nc2cccc(S(N)(=O)=O)c2)cc1C(F)(F)F
8.49

Requested read-out: pIC50. Entry: NS(=O)(=O)c1cc(F)cc(NC(=O)c2cc(C(F)(F)F)cnc2N2CCCCC2)c1
6.62

Requested read-out: pIC50. Entry: CC1CN(c2ncc(C(F)(F)F)cc2C(=O)Nc2cccc(S(N)(=O)=O)c2)CC(C)O1 (single isomer, unassigned) [Example 150]
6.38

Requested read-out: pIC50. Entry: NS(=O)(=O)c1cccc(NC(=O)c2ccc(C(F)(F)C(F)(F)F)nc2N2CCCCC2)c1
6.47

Requested read-out: pIC50. Entry: NS(=O)(=O)c1cccc(NC(=O)c2cc(C(F)(F)F)cnc2N2CC(C(F)(F)F)C2)c1
6.21

Requested read-out: pIC50. Entry: NS(=O)(=O)c1cccc(NC(=O)c2cc(C(F)(F)F)cnc2N2CCCC(F)(F)C2)c1
6.61

Requested read-out: pIC50. Entry: NS(=O)(=O)c1cccc(NC(=O)c2ccc(OC(F)(F)F)nc2N2CCCCC2)c1
6.61

* * *

So I've got a bunch of molecules here, and I need their log10 IC50 values.
Experimental target: human Nav1.8 (Homo sapiens (Human))
Assay overview: Nav1.8 Qube automated patch-clamp assay
Conditions: Nav1.8 Qube Assay; human Nav1.8 channels stably expressed in HEK 293 cells
Remember, log10 of IC50, in nM.

Requested read-out: log10 IC50. Entry: NS(=O)(=O)c1ccc(O)c(NC(=O)c2cc(C(F)(F)F)cnc2N2CCCCCC2)c1 [Example 25]
2.53

Requested read-out: log10 IC50. Entry: C[C@H]1CN(c2ncc(C(F)(F)F)cc2C(=O)Nc2cccc(S(N)(=O)=O)c2)C[C@H](C(F)(F)F)O1 [Example 145]
1.18

Requested read-out: log10 IC50. Entry: NC(=O)c1cccc(NC(=O)c2cc(Br)cnc2N2CCCCCC2)c1 [Example 38]
2.45

Requested read-out: log10 IC50. Entry: C[Si](C)(C)c1cnc(N2CCCCCC2)c(C(=O)Nc2cccc(S(N)(=O)=O)c2)c1 [Example 86]
1.89

Requested read-out: log10 IC50. Entry: COC(=O)N1CCN(c2ncc(C(F)(F)F)cc2C(=O)Nc2cccc(S(N)(=O)=O)c2)CC1 [Example 74]
4.00

Requested read-out: log10 IC50. Entry: NC(=O)c1cccc(NC(=O)c2ccc(Cl)nc2N2CCCC(F)(F)CC2)c1 [Example 14]
1.26

Requested read-out: log10 IC50. Entry: NS(=O)(=O)c1cccc(NC(=O)c2cc(C(F)(F)F)cnc2N2C3CCC2CC3)c1 [Example 139]
3.54

Requested read-out: log10 IC50. Entry: NC(=O)c1cccc(NC(=O)c2cc(C(F)(F)F)cnc2N2CCC3(CC3)C(F)(F)C2)c1 [Example 109]
2.93

Requested read-out: log10 IC50. Entry: CC1CN(c2ncc(C(F)(F)F)cc2C(=O)Nc2cccc(S(N)(=O)=O)c2)CCC1(F)F (single isomer, unassigned) [Example 123]
0.48

Requested read-out: log10 IC50. Entry: NS(=O)(=O)c1cccc(NC(=O)c2cc(C(F)(F)C(F)(F)F)cnc2N2CCCCCC2)c1 [Example 164]
1.18

Requested read-out: log10 IC50. Entry: Cc1nc(N2CCCC(F)(F)CC2)c(C(=O)Nc2cccc(C(N)=O)c2)cc1C#N [Example 177]
1.45

Requested read-out: log10 IC50. Entry: CC1CN(c2ncc(C(F)(F)F)cc2C(=O)Nc2cccc(S(N)(=O)=O)c2)CCC1(F)F (single isomer, unassigned) [Example 124]
1.18

Requested read-out: log10 IC50. Entry: COC1CCCN(c2ncc(C(F)(F)F)cc2C(=O)Nc2cccc(S(N)(=O)=O)c2)CC1 (stereo not shown) [Example 49]
2.27

Requested read-out: log10 IC50. Entry: NS(=O)(=O)c1cccc(NC(=O)c2cc(Cl)cnc2N2CCCCCC2)c1 [Example 31]
1.34

Requested read-out: log10 IC50. Entry: COc1nc(N2CCCCCC2)c(C(=O)Nc2cccc(S(N)(=O)=O)c2)cc1Br [Example 156]
1.28

Requested read-out: log10 IC50. Entry: Cc1cc(C(=O)Nc2cccc(S(C)(=O)=O)c2)c(N2CCCCCC2)nc1C [Example 36]
1.49
